- Test name: Nuclear factor erythroid 2-related factor 2/antioxidant responsive element (Nrf2/ARE) small molecule agonists: qHTS cell viability counter screen in human keratinocytes (AID 1919968); further: nearly all actives have a fitted effect of over 55% in size
- Details: KeratinoSens HaCaT ARE cells viability, CellTiter-Fluor, 24 h; series mostly up to 92.4 µM
Records with an inconclusive call do not appear. Calls of active or inactive are those of the source. The call rests on the fitted dose curve; in most records, active means well fitted cell-killing curve with a large enough effect in the repeat runs; inconclusive means weak or mixed curves, or effect the other way; inactive means flat fitted curve, though single readings scatter.
Assign a class; possible classes are 1 for active, -1 for inactive

[ask] # outcome recorded in this test, key = CCOC(=O)c1ccccc1
[reply] -1

[ask] Would you mind telling me which call this test gave O=C(C(Cl)Cl)N1CCOC12CCCCC2 ?
[reply] -1

[ask] Hi, sorry to bother you, what did the test record for O=C(NS(=O)(=O)/C=C/c1ccccc1)c1ccc(F)cc1Cl ?
[reply] -1

[ask] Lab log entry: CCN(CC)C(C)=O — outcome as called in the assay?
[reply] -1

[ask] Could you check what this test reported for C=C1CC[C@H]2O[C@]2(C)CC[C@@H]2[C@@H]1CC2(C)C ?
[reply] -1

[ask] Assay outcome for O=C(O)CCNC(=O)c1ccc(N=Nc2ccc(O)c(C(=O)O)c2)cc1 : what was it?
[reply] -1

[ask] Entry Nc1ccc2cc(S(=O)(=O)O)ccc2c1 : call = ?
[reply] -1

[ask] Please share the test call associated with OC1(c2ccc(Cl)c(C(F)(F)F)c2)CCN(CCCC(c2ccc(F)cc2)c2ccc(F)cc2)CC1 .
[reply] 1

[ask] Kindly provide the recorded test outcome for the following compound: CCN(C(=O)c1cc(C)cc(OC[C@H](C)Nc2ccncc2)c1)C(C)C
[reply] -1

[ask] Dear all, I need the recorded test outcome for Cc1oc(-c2ccccc2)nc1CCOc1ccc(C[C@H](Nc2ccccc2C(=O)c2ccccc2)C(=O)O)cc1 , thank you.
[reply] 1

[ask] # lookup: test call for COS(=O)(=O)C(F)(F)F
[reply] -1

[ask] // outcome(item) with item = CC(C)=CCC/C(C)=C/CC/C(C)=C/CO
[reply] -1

----------
- Test name: p53 small molecule agonists, cell-based qHTS assay (AID 1963582); further: on the % scale 0 is the no-effect control and ±100 the full control effect
- Details: HCT-116 p53RE-bla reporter, beta-lactamase FRET ratio, 16 h; series mostly up to 66 µM
Results filed as inconclusive are left out. Calls of active or inactive are those of the source. The call rests on the fitted dose curve; in most records, active means well fitted activation curve with a large enough effect in the signal ratio in the repeat runs (not every such curve was filed as active); inconclusive means weak or mixed curves; inactive means flat fitted curve, though single readings scatter; the % refers to the signal ratio.
Measured metric: activation

Take a look at these entries with their results.
{"columns": ["Compound", "activation"],
 "data": [
  ["C[C@@H]1CN(CCCn2c3ccccc3c3ccccc32)C[C@H](C)N1", "inactive"],
  ["O=C(c1ccc(F)cc1)C1CCN(CCn2c(=O)[nH]c3ccccc3c2=O)CC1", "inactive"],
  ["CCCCCCCCCCOc1cc2c(=O)c(C(=O)OCC)c[nH]c2cc1OCC", "4.71% [at 5.99 µM] (inactive)"],
  ["CC(C(=O)O)c1ccc2c(c1)CC(=O)c1ccccc1S2 (configuration not stated)", "inactive"],
  ["CN1CCN(c2c(F)cc3c(=O)c(C(=O)O)cn(CCF)c3c2F)CC1", "inactive"],
  ["CCCCCCCCCCCCCCCCCCOS(=O)(=O)O", "inactive"]
]}

[ask] Value lookup for activation; key = CCCCCCCC1CCCC1=O (configuration not stated)
[reply] inactive

[ask] Name the reported activation value associated with the compound CC[N+]1(CC)CCC(=C(c2ccccc2)c2ccccc2)C1C (configuration not stated)
[reply] inactive

[ask] Look up activation: CC(C)CCCCCCOC(=O)CCCCC(=O)OCCCCCCC(C)C
[reply] inactive

[ask] Can you share its activation? I mean this compound: O=c1[nH]c(=O)c2[nH]c(=O)[nH]c2[nH]1
[reply] 1.49% [at 5.99 µM] (inactive)

[ask] Given the entry Cc1ccnc(N)c1 , report its measured activation.
[reply] inactive

[ask] Quick one: activation for Cc1ccc(N(CC2=NCCN2)c2cccc(O)c2)cc1 ?
[reply] inactive

----------
- Test name: p53 small molecule agonists, cell-based qHTS assay: qHTS cell viability counter screen (AID 1963581); further: on the % scale 0 is the no-effect control and ±100 the full control effect; nearly all actives have a fitted effect of over 45% in size
- Details: p53RE-bla HCT-116 viability, ATP luminescence, 16 h; series mostly up to 66 µM
Records with an inconclusive call do not appear. Active and inactive are the calls of the source. The call rests on the fitted dose curve.
Measured metric: activity change, negative = cytotoxicity

{"columns": ["Compound", "Reported result"],
 "data": [
  ["CCCCc1nc(Cl)c(CO)n1Cc1ccc(-c2ccccc2-c2nn[nH]n2)cc1", "inactive"],
  ["CCCCOCCOC(=O)CCCCCCCCC(=O)OCCOCCCC", "inactive"],
  ["N#CSCC(=O)O", "inactive"],
  ["CCCCCCCCCCCCCCCCCCOCCO", "16.5% [at 13.5 µM] (inactive)"],
  ["O=[N+]([O-])c1ccc(/C=N\\O)o1", "inactive"],
  ["Nc1cc([N+](=O)[O-])cc(Cl)c1O", "inactive"]
]}

[ask] # lookup: activity change, negative = cytotoxicity of CCCc1ncc(C(=O)O)s1
[reply] inactive

[ask] Which activity change, negative = cytotoxicity value belongs to CCN1CCN(c2cc3c(cc2F)c(=O)c(C(=O)O)cn3C2CC2)CC1 ?
[reply] inactive

[ask] Using the record for C[C@]1(Cn2ccnn2)[C@H](C(=O)O)N2C(=O)C[C@H]2S1(=O)=O , report its activity change, negative = cytotoxicity.
[reply] inactive

[ask] Give its activity change, negative = cytotoxicity value. Item: C=CC(=O)OCC(O)COc1ccccc1 (stereo unspecified)
[reply] inactive

[ask] Fill in: activity change, negative = cytotoxicity of CC(C)CCCCCCOC(=O)CCCCC(=O)OCCCCCCC(C)C is ___
[reply] inactive

[ask] What value of activity change, negative = cytotoxicity has been recorded for this entry: CN(C)CCN1CCN(c2cccc(Cl)c2)C1=O
[reply] inactive

[ask] Consider the compound shown here: C=CCn1c(=O)n(CC=C)c(=O)n(CC=C)c1=O What is its recorded activity change, negative = cytotoxicity?
[reply] inactive

[ask] Give the measured activity change, negative = cytotoxicity of Cc1ccc2c(c1)C(=O)c1ccccc1C2=O .
[reply] inactive

[ask] Name the recorded activity change, negative = cytotoxicity for FC(F)(F)C(F)(F)C(F)(F)C(F)(F)C(F)(F)C(F)(F)C(F)(F)C(F)(F)Br .
[reply] inactive

[ask] Suppose we examine the compound CCOC(=O)C(C)O (stereo unspecified) ; what activity change, negative = cytotoxicity value has been reported?
[reply] inactive

----------
- Test name: Nuclear factor erythroid 2-related factor 2/antioxidant responsive element (Nrf2/ARE) small molecule agonists: qHTS cell viability counter screen in human keratinocytes (AID 1919968); further: nearly all actives have a fitted effect of over 55% in size
- Details: KeratinoSens HaCaT ARE cells viability, CellTiter-Fluor, 24 h; series mostly up to 92.4 µM
Results filed as inconclusive are left out. The source made the active and inactive calls. Calls follow the shape of the dose curve; as a rule, active = well fitted cell-killing curve with a large enough effect in the repeat runs; inconclusive = weak or mixed curves, or effect the other way; inactive = flat fitted curve, though single readings scatter.
// one of YES = active, NO = inactive, no free text

[ask] How was C/C=C(\C)C=O classified in this test?
[reply] NO

[ask] # outcome recorded in this test, key = O=C1c2ccccc2C(=O)C1c1ccc(Br)cc1
[reply] NO

[ask] Entry C=C1CC[C@H](O)C/C1=C\C=C1/CCC[C@]2(C)[C@@H]([C@H](C)CCCC(C)C)CC[C@@H]12 : call = ?
[reply] NO

[ask] Could you check what this test reported for CCCCCCCCCCCCCCCCCCOS(=O)(=O)O ?
[reply] YES

[ask] For COc1ccc(-n2nc(C(F)F)cc2-c2ccc(S(C)=O)cc2)cc1 (stereo unspecified) , which call appears in the assay record?
[reply] NO

[ask] Record request — test call for Cc1cccc([N+](=O)[O-])c1C(=O)O
[reply] NO

----------
- Test name: Nuclear factor erythroid 2-related factor 2/antioxidant responsive element (Nrf2/ARE) small molecule agonists: luciferase reporter gene qHTS assay in human keratinocytes (AID 1919969); further: on the % scale 0 is the no-effect control and ±100 the full control effect; nearly all actives have a fitted effect of over 35% in size
- Details: KeratinoSens HaCaT ARE-luciferase, luminescence, 24 h; series mostly up to 92.4 µM
- Description: National Center for Advancing Translational Sciences [NCATS] Division of Preclinical Innovation [DPI] U.S. Environmental Protection Agency [EPA] National Institutes of Environmental Health Sciences [NIEHS] National Toxicology Program [NTP] […] Oxidative stress has been implicated in the pathogenesis of a variety of diseases ranging from cancer to neurodegeneration. […] The activation of the report gene under culture conditions can be detected by ONE-Glo Luciferase Assay System (Promega, Madison, WI). […]
Inconclusive results are not listed. Calls of active or inactive are those of the source. Calls follow the shape of the full dose curve.
So I've got a bunch of molecules here, and I need their activity, positive = activation values.

[ask] Which activity, positive = activation is listed for NC(Cc1ccc(Cl)cc1)C(=O)O (stereo not drawn) ?
[reply] -1.51% [at 0.349 µM] (inactive)

[ask] GET /values?readout=activity, positive = activation&item= CCOC(CN1CCN(CC(C)C(=O)c2ccccc2)CC1)c1ccccc1 (stereo not drawn)
[reply] 6.71% [at 19 µM] (inactive)

[ask] So what's the measured activity, positive = activation for this one? COc1cc(C(C)C)ccc1C
[reply] 17.4% [at 19 µM] (inactive)

[ask] Please report the recorded activity, positive = activation for NCC(=O)O .
[reply] -0.375% [at 19 µM] (inactive)

[ask] Tell me the measured activity, positive = activation of CCC(=O)CC(C)CC (stereo not drawn) , please.
[reply] -3.45% [at 0.349 µM] (inactive)

[ask] Which activity, positive = activation reading was recorded for the molecule C[C@H]1NCc2cc(-c3ccc4c(=O)c(C(=O)O)cn(C5CC5)c4c3OC(F)F)ccc21 ?
[reply] -0.2% [at 19 µM] (inactive)

[ask] # query: activity, positive = activation of entry BrC/C=C/CBr
[reply] -2.5% [at 19 µM] (inactive)

[ask] Reported activity, positive = activation for CN1C[C@@H]2C[C@H]1CN2c1cc2c(cc1F)c(=O)c(C(=O)O)cn2C1CC1 : what is it?
[reply] -6.17% [at 19 µM] (inactive)

[ask] activity, positive = activation for NCCCNCCSP(=O)(O)O ?
[reply] -4.57% [at 8.39 µM] (inactive)

[ask] Quick check: activity, positive = activation of CCCCCCCCCCCCCC=O ?
[reply] 0.0623% [at 8.39 µM] (inactive)

[ask] Quick one: activity, positive = activation for Cc1nc2n(c(=O)c1CCN1CCC(c3noc4cc(F)ccc34)CC1)CCC[C@H]2O ?
[reply] 1.67% [at 19 µM] (inactive)

[ask] Would you kindly share the measured activity, positive = activation for O=C(Nc1cccc(C2=NCCN2)c1)Nc1cccc(C2=NCCN2)c1 ?
[reply] -4.28% [at 19 µM] (inactive)

[ask] Value lookup for activity, positive = activation; key = Nc1ccc(S(=O)(=O)Nc2ccnn2-c2ccccc2)cc1
[reply] 4.54% [at 19 µM] (inactive)
